# composite z-score listing for each entry below
# Test system: Sam68 (KHDRBS1)
# assayProcedure: Sam68 small-molecule binders, primary screen, biochemical, small-molecule microarray, 635 nm fluorescence (AID 1125);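 further: score merges 667 nm channel intensity with signal to noise over triplicate slides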
# reportedConditions: small-molecule microarray binding, higher = more signal
Give a plain numeric answer without units written out.

These solved cases illustrate the format of a correct answer.
* COc1ccc([Si](C)(C)[C@@H]2[C@@H](CCn3cc([C@H](O)c4ccccc4)nn3)O[C@]3(C(=O)N(Cc4ccc(N5CCC5=O)cc4)c4ccccc43)[C@H]2C)cc1 | -0.323
* CO[C@H]1O[C@H](CO)[C@@H](OC(=O)Nc2ccc3c(c2)OCO3)[C@H](OC(=O)c2cc3ccccc3[nH]2)[C@H]1OC(=O)c1cc2ccccc2[nH]1 | 0.12

Kindly review the next compound as well.
Ask | # get_value(readout='composite z-score', item= C=C(C)[C@@H]1CC=C(C(O)C2C=CC3C(=O)N(c4ccccc4)C(=O)C3N2Nc2ccccc2F)CC1 (stereo partly drawn) )
Reply | 1.34

====

# z-score listing for each entry below
# assayProcedure: A549 lung cancer cell viability effects, profiling panel, resazurin fluorescence, 24 h, PK04 Diversity Set (AID 1171); further: test concentration not given here
# reportedConditions: higher = more signal, called active from +8 up or from −8 down
Give a plain numeric answer without units written out.

• CC(=O)c1ccc(C(O)C2C=CC3C(=O)N(c4ccccc4)C(=O)C3N2Nc2ccc(C#N)cc2)cc1 (configuration not stated) = -0.178

Ask | # get_value(readout='z-score', item= COc1ccc([Si](C)(C)[C@@H]2[C@@H](CC(=O)N(CCO)Cc3ccccc3)O[C@]3(C(=O)N(c4ccccc4)c4ccccc43)[C@H]2C)cc1 )
Reply | -1.94

Ask | Now give it for C=CC[C@@]1(C(=O)N2CCOCC2)N=C(c2ccc(OCCCO)cc2)O[C@@H]1c1ccccc1CN=[N+]=[N-] too.
Reply | 0.278

Ask | Now give it for COCCOC(=O)N1C(=O)[C@@]2(c3cc(C#CC4=CCCCC4)ccc31)[C@H](c1ccccc1OCCO)N1[C@H](c3ccccc3)[C@H](c3ccccc3)OC(=O)[C@H]1[C@@H]2C(=O)N1CCCCCCC1 too.
Reply | 0.0309

Ask | Now give it for O=C1O[C@H](c2ccccc2)[C@H](c2ccccc2)N2[C@H]1[C@@H](C(=O)O)[C@]1(C(=O)Nc3ccc(C#CC4=CCCCC4)cc31)[C@H]2c1ccc(O)cc1 too.
Reply | 0.391

Ask | Now give it for COCCOC(=O)N1C(=O)[C@@]2(c3cc(C#Cc4ccc(OC)cc4)ccc31)[C@H](c1ccc(O)cc1)N1[C@H](c3ccccc3)[C@H](c3ccccc3)OC(=O)[C@H]1[C@@H]2C(=O)N1CCCCCCC1 too.
Reply | -0.0155

Ask | Now give it for COC(=O)C1=CC(CCCO)=CC(C2CC2)N(C)C=C1C(=O)OC (configuration not stated) too.
Reply | -0.951

====

# composite z-score listing for each entry below
# assayProcedure: small-molecule microarray binders of probe aLefty2, primary screen, biochemical, biotinylated probe, 635/667 nm fluorescence (AID 1094);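 further: score merges spot fluorescence near 667 nm with spot signal-to-noise ratio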
# reportedConditions: higher = more signal

These solved cases illustrate the format of a correct answer.
- COC(=O)c1c2oc(c1C(=O)OC)C(=O)N(Cc1ccccc1)Cc1cn(nn1)C[C@H](Cc1ccccc1)NC(=O)N[C@H](CO)CC2: -0.256
- COc1cc(OC)c(C(O)C2C=CC3C(=O)N(c4ccccc4)C(=O)C3N2Nc2ccccc2)cc1Br (stereo not given): 0.167
- Cc1cc(C)c(C(O)C2C=CC3C(=O)N(c4ccccc4)C(=O)C3N2Nc2ccc(C(C)C)cc2)c(C)c1 (stereo not given): 0.255
- COc1ccc([Si](C)(C)[C@H]2[C@H](CCO)O[C@@]3(C(=O)N(Cc4cccc(N5C(=O)COc6ccccc65)c4)c4ccccc43)[C@@H]2C)cc1: -0.0021
- O=C1O[C@@H](c2ccccc2)[C@@H](c2ccccc2)N2[C@@H](c3ccc(O)cc3)[C@]3(C(=O)Nc4ccc(C#CC5(O)CCCCCC5)cc43)[C@@H](C(=O)NC[C@H](O)c3ccccc3)[C@H]12: -0.242
- C[C@@H]1ON(c2ccc(C(=O)OC(C)(C)C)cc2)[C@H](c2ccc(O)cc2)[C@H]1C(=O)N1C(=O)OC[C@H]1Cc1ccccc1: -0.146
- O=C(CS)NCCCCCNC(=O)[C@@H]1C[C@@H]2C(=O)N3CCC[C@H]3C(=O)N2[C@@H]1c1cccc(OCCO)c1: -0.0998
- C=CC[C@]1(C(=O)NCCN2CCOCC2)N=C(c2ccc(OCCCO)cc2)O[C@H]1c1ccccc1CN=[N+]=[N-]: 0.298

Ask | # get_value(readout='composite z-score', item= CN1C(=O)C2C=CC(C(O)COCc3ccccc3)N(N(c3ccccc3)c3ccccc3)C2C1=O (stereo not given) )
Reply | 0.388

Ask | Now give it for C=C(/C(=C/C[C@H](OC(C)=O)c1ccccc1OCCO)c1cc(C(=O)OC)ccc1OC)C(C)C too.
Reply | -0.141

Ask | Now give it for COC(=O)c1ccc([C@H](NC(=O)c2ccco2)[C@]2(C)C[C@H]2C2CCCCC2)cc1 too.
Reply | -0.0986

Ask | Now give it for COc1cc(CO)cc(I)c1O[C@H]1C=C(C(=O)NCCO)C[C@@H](NCc2ccc(F)cc2)[C@@H]1O too.
Reply | -0.109

Ask | Now give it for COCCOC(=O)N1C(=O)[C@@]2(c3cc(C#CC4=CCCCC4)ccc31)[C@H](c1ccc(OCCO)cc1)N1[C@H](c3ccccc3)[C@H](c3ccccc3)OC(=O)[C@H]1[C@@H]2C(=O)NC[C@H](O)c1ccccc1 too.
Reply | 0.789

Ask | Now give it for COc1ccc([Si](C)(C)[C@@H]2[C@@H](CC(=O)N3Cc4ccccc4C[C@H]3CO)O[C@]3(C(=O)N(Cc4cccc(N5C(=O)c6cccc7cccc5c67)c4)c4ccccc43)[C@H]2C)cc1 too.
Reply | -0.0144

Ask | Now give it for C=C(C)c1cc2c(c(CCCCCC)n1)[Si](C(C)C)(C(C)C)OC2 too.
Reply | -0.193

====

# assayProcedure: basal HepG2 mitochondrial membrane potential changes, profiling panel, cell-based, JC-1 fluorescence, 24 h, 100 nL compound (AID 1167); further: test concentration not given here
# reportedConditions: higher = more signal
The threshold is inclusive: z-score of exactly -0.06 counts as yes; values below receive no.

- O=C(NCCCCCNC(=O)/C(Cc1ccccc1)=N/O)OCc1ccccc1: no

Ask | Does z-score meet or surpass -0.06 for CC(C)(C)OC(=O)CC[C@]1(C(=O)NCc2ccccc2)N=C(c2ccc(OCCCO)cc2)O[C@H]1c1ccccc1CN=[N+]=[N-] ?
Reply | yes

Ask | Now give it for CC1CC/C=C\[C@H]2OC34C=CCN(C(C)C)C(=O)[C@H]3N(CCCCCCO)C(=O)[C@@H]4C2C(=O)O1 (some centres not stated) too.
Reply | yes

Ask | Now give it for CN(C)C(=O)[C@]1(CCS(=O)(=O)c2ccccc2)N=C(c2ccc(OCCCO)cc2)O[C@@H]1c1ccccc1N=[N+]=[N-] too.
Reply | yes

====

# composite z-score listing for each entry below
# assayProcedure: small-molecule microarray binders of probe aEGFR, primary screen, biochemical, biotinylated probe, 635/667 nm fluorescence (AID 1097);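 further: probe is a biotinylated anti-EGFR antibody binding compounds printed on slides; score combines fluorescence near 667 nm and signal to noise of each spot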
# reportedConditions: higher = more signal
Give a plain numeric answer without units written out.

- [N-]=[N+]=Nc1ccccc1[C@H]1OC(c2ccc(OCCCO)cc2)=N[C@@]1(CCS(=O)(=O)c1ccccc1)C(=O)NCCN1CCOCC1: 0.154

Ask | # get_value(readout='composite z-score', item= COC(=O)C(CC#Cc1ccc2c(c1)[C@]1(C(=O)N2)[C@H](C(=O)N2CCN(c3ncccn3)CC2)[C@H]2C(=O)O[C@H](c3ccccc3)[C@H](c3ccccc3)N2[C@@H]1c1ccc(OCCO)cc1)C(=O)OC )
Reply | -0.0177

Ask | Now give it for O=C(NCC(F)(F)F)[C@@H]1c2ccccc2C(=O)N(Cc2cc(F)cc(C(F)(F)F)c2)[C@H]1c1ccc(CO)cc1 too.
Reply | -0.278

Ask | Now give it for COc1ccc(CN(C2=CC[C@@]3(C(N)=O)C(=O)C(Cl)=C(Cl)C(=O)[C@@]3(C#N)C2)S(=O)(=O)c2ccc(Br)cc2)cc1 too.
Reply | -0.111

Ask | Now give it for OCC1CC(c2ccccc2)=NO1 (configuration not stated) too.
Reply | -0.068

Ask | Now give it for CC(C)Cc1ccc(CN2CC[C@@H](NC(=O)Nc3ccccc3)C2)cc1 too.
Reply | -0.0214

Ask | Now give it for O=C1C2C=CC(C(O)c3ccccc3)N(Nc3ccccc3F)C2C(=O)N1c1ccccc1 (configuration not stated) too.
Reply | -0.067
